Exercise: state measured melting point for each of the compounds provided.

Ask | // query melting point value for entry CC(C)C1CC(S(=O)(=O)Cc2c(C(F)(F)F)nn(C)c2OC(F)F)=NO1 (stereo not shown)
Reply | 85 to 86 °C

Ask | And for `Cn1nc(C(F)(F)F)c(CS(=O)(=O)C2=NOC(C)(C)C2)c1OCC(F)(F)F` ?
Reply | 93 to 95 °C

Ask | How about this compound: CC1CC(S(=O)(=O)Cc2c(C(F)(F)F)nn(C)c2OC(F)F)=NO1 (stereo not shown)
Reply | 106 to 107 °C

Ask | `CCCn1nc(C(F)(F)F)c(CS(=O)(=O)C2=NOC(C)(C)C2)c1OCC(F)(F)F` , same question.
Reply | 49 to 51 °C

Ask | Next entry: CCC1(C)CC(S(=O)(=O)Cc2c(C(F)(F)F)nn(C)c2OC(F)F)=NO1 (stereo not shown)
Reply | 77 to 78 °C

Ask | Try the compound `CCn1nc(C(F)(F)F)c(CS(=O)(=O)C2=NOC(C)(C)C2)c1OC(F)F`
Reply | 98 to 100 °C

Ask | Another compound to look at: Cn1nc(C(F)(F)F)c(CS(=O)(=O)C2=NOC3CCCCC23)c1OC(F)F (stereo not shown)
Reply | 97 to 98 °C

Ask | `Cn1nc(C(F)(F)F)c(CS(=O)(=O)C2=NOC(C)(C)C2)c1OCC(F)F` , same question.
Reply | 89 to 91 °C

Ask | Another compound to look at: `CC1(C)CC(S(=O)(=O)Cc2c(C(F)(F)F)nn(C(C)(C)C)c2OCC(F)(F)F)=NO1`
Reply | 91 to 92 °C

Ask | Repeat for the following compound: `CCCn1nc(C(F)(F)F)c(C)c1O`
Reply | 133 to 134 °C
